Target: Cytochrome P450 2C9 (Homo sapiens) (UniProt P11712)
Sequence (P11712 whole entry, looked up): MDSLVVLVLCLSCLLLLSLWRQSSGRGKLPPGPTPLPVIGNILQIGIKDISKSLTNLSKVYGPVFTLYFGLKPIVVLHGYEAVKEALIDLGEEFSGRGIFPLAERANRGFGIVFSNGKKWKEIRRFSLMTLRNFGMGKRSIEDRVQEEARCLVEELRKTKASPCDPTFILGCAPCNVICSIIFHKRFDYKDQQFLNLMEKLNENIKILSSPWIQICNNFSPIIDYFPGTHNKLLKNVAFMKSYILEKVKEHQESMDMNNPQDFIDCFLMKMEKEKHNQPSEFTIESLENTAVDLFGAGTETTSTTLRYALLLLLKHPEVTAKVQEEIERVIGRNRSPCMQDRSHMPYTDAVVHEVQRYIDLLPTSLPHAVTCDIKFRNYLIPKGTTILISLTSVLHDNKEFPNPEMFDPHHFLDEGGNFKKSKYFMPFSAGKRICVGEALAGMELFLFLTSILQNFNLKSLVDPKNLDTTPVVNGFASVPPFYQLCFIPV
Experiment: Cytochrome P450 family 2 subfamily C member 9 (CYP2C9) small molecule antagonists: luciferase biochemical (cell-free) qHTS assay (AID 1645842); note: % is set by controls: 0 for no effect and ±100 for the full control effect; nearly all actives have a fitted effect of over 55% in size
Details: P450-Glo CYP2C9 enzyme assay, luciferin luminescence; series mostly up to 57.4 µM
Results filed as inconclusive are left out. Active and inactive are the calls of the source. Calls come from the whole dose curve; as a rule, active = well fitted inhibition curve with a large enough effect in the repeat runs; inconclusive = weak or mixed curves; inactive = no such curve, though single readings can be large or run the other way.
testReadout: outcome

Consider the reported outcome for these compounds:
>  <compound>
Cc1cc(C)nc(NS(=O)(=O)c2ccc(N)cc2)n1

>  <testReadout>
outcome

>  <assayResult>
inactive

$$$$
>  <compound>
Cc1ccccc1N=Nc1ccc(N=Nc2c(O)ccc3ccccc23)c(C)c1

>  <testReadout>
outcome

>  <assayResult>
inactive

$$$$
>  <compound>
CCN[C@H]1CN(CCCOC)S(=O)(=O)c2sc(S(N)(=O)=O)cc21

>  <testReadout>
outcome

>  <assayResult>
inactive

$$$$
>  <compound>
O=C1C(c2[nH]c3ccccc3c2O)=Nc2ccccc21

>  <testReadout>
outcome

>  <assayResult>
inactive

$$$$
>  <compound>
NC(=O)CC[C@@H](N)C(=O)O

>  <testReadout>
outcome

>  <assayResult>
inactive

$$$$
>  <compound>
CCCC(O)C(CC)CO (configuration not stated)

>  <testReadout>
outcome

>  <assayResult>
inactive

$$$$

Response field outcome (Cytochrome P450 2C9 (Homo sapiens) (UniProt P11712)) for item CC(=O)Nc1ccc(C(=O)O)cc1 : inactive

----------
Z-AUC listing for selected compounds.
Experiment: qHTS drug screen for cell cycle checkpoint inhibitors in PARPi-resistant BRCA-mutant ovarian cancer cell lines. (AID 1963452)
Conditions: PEO1/OlaR viability, CellTiter-Glo luminescence, 96 h; stronger effect = lower value
Respond using a number only.

Solved cases (2 shown):
>  <structureSmiles>
OC[C@@H](O)[C@@H](O)[C@H](O)[C@H](O)CO

>  <Z-AUC>
-0.605

$$$$
>  <structureSmiles>
Cc1onc(-c2ccccc2)c1-c1ccc(S(N)(=O)=O)cc1

>  <Z-AUC>
-1

$$$$

Just so you know, measured Z-AUC for CCCCCOC(=O)Nc1nc(=O)n([C@@H]2O[C@H](C)[C@@H](O)[C@H]2O)cc1F came out at -0.294

----------
Assay: Drug repurposing screens with cells derived from glioblastoma tumor samples (AID 1345199); note: % is set by controls: 0 for no effect and ±100 for the full control effect; nearly all actives have a fitted effect of over 40% in size
Conditions: GBM patient neurospheres viability, ATP luminescence, 48 h; at 45.9 µM (top of the series); tumour line B
Inconclusive results are not listed.
testReadout: activity, negative = cell killing (%)
Give the quantity in %, number only.

Example compounds with recorded activity, negative = cell killing:
>  <compound>
CN1CC(=O)NC1=N

>  <resultUnits>
%

>  <assayResult>
-7.86

$$$$
>  <compound>
CCCCCCCCCCCCCCCCCCO

>  <resultUnits>
%

>  <assayResult>
-13.2

$$$$

Sample O=C(CCBr)N1CCN(C(=O)CCBr)CC1 ; activity, negative = cell killing observed: -9.14

Given item Cc1c(NC(C)C)c(=O)n(-c2ccccc2)n1C , the value recorded as its activity, negative = cell killing is 0.947

Lookup result for CCc1nnc(NS(=O)(=O)c2ccc(N)cc2)s1 ; measured activity, negative = cell killing: -21.8

Field activity, negative = cell killing (entry CCOC(=O)[C@H](CCc1ccccc1)N[C@@H](C)C(=O)N1Cc2cc(OC)c(OC)cc2C[C@H]1C(=O)O ) reads -9.77

// recorded activity, negative = cell killing for Cc1ccc(S(=O)(=O)NC(=O)NC2CCCCCCC2)cc1 : -4.76

Summary for this compound, C[C@@H](N)C(=O)O : activity, negative = cell killing is -7.83

compound NNC(=O)CP(=O)(c1ccccc1)c1ccccc1 , activity, negative = cell killing observed: -1.23

Measured activity, negative = cell killing, O=c1[nH]c2cc(C(F)(F)F)c(N3CCOCC3)cc2n(CP(=O)(O)O)c1=O : -1.62

Value of activity, negative = cell killing reported for the compound COc1ccccc1OC(=O)Oc1ccccc1OC is -6.75

Value source: PubChem BioAssay (NCATS)
